# measurement_target: T1, GHRH receptor of human pituitary membranes (human, UniProt Q02643)
# T1 sequence: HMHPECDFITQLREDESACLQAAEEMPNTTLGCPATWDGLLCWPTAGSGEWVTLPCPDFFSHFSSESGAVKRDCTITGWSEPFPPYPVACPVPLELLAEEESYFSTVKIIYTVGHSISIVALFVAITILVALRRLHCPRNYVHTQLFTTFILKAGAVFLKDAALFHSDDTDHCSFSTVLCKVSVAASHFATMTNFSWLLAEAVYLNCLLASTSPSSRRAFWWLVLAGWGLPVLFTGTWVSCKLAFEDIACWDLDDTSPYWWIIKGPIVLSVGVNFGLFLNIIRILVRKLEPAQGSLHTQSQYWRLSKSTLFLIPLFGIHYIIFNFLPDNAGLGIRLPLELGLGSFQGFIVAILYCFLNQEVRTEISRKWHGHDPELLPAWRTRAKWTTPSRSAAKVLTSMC
# protocol_description: competition vs 125I-[His1,Nle27]hGHRH(1-32)NH2, human pituitary membranes
Non-standard residues stand in square brackets, D forms with d. No end group written: not given here. *: point of attachment. NMeY = CN[C@@H](Cc1ccc(O)cc1)C(=O)O; Agmatine = N=C(N)NCCCCN*; Nle = CCCC[C@H](N)C(=O)O; Orn = NCCC[C@H](N)C(=O)O; Abu = CC[C@H](N)C(=O)O
outcome_measure: relative affinity (binding potency) compared to hGHRH(1-29)

Known relative affinity (binding potency) compared to hGHRH(1-29) results, listed for orientation:
[NMeY][dA]DAIFTQSYR[Orn]VL[Abu]QLSAR[Orn]LLQDI[Nle]D[Agmatine] [P-20361 [N-Me-Tyr^1, D-Ala^2, Gln^8, Orn^12, Abu^15, Orn^21, Nle^27, Asp^28, Agm^29]hGHRH(1-29)NH2]	6.42 vs hGHRH(1-29)NH2=1
[NMeY]ADAIFTQSYR[Orn]VL[Abu]QLSAR[Orn]LLQDI[Nle]D[Agmatine] [P-20356 [N-Me-Tyr^1, Gln^8, Orn^12, Abu^15, Orn^21, Nle^27, Asp^28, Agm^29]hGHRH(1-29)NH2]	7.5 vs hGHRH(1-29)NH2=1

Pending binder:
What value of measured relative affinity (binding potency) compared to hGHRH(1-29) is listed for YADAIFTNSYRKVLGQLSARKLLQDIMSRQ (Dat^1; D-Abu^2; Orn^12; Abu^15; Orn^21; Nle^27; Gab^30 (in place of Gln^30); C-terminal -NH2) [P-25504 [Dat^1, D-Abu^2, Orn^12, Abu^15, Orn^21, Nle^27, Gab^30]hGHRH(1-30)NH2] ?
2.68 vs hGHRH(1-29)NH2=1
